These measurements were taken from patent US20160075653A1.

- ASSAY NOTES: Measurement of log P values by HPLC on reversed phase columns (methods [a] pH 2.3, [b] pH 2.7, [c] pH 7.8)
- Type: physicochemical
- COND: HPLC-MS, method [b]: pH 2.7, 0.1% formic acid / acetonitrile; read-out: log P^b)
READOUT LABEL: chromatographic logP
Give bare numbers.

Reported chromatographic logP for O=C(N[C@@H]1C[C@]1(F)c1ccc(Cl)cc1)c1c(F)cccc1F (relative stereo) [Compound 750] was 2.69

###

Kindly state logP for each of the entries shown.
- ASSAY NOTES: Measurement of log P values by HPLC on reversed phase columns (methods [a] pH 2.3, [b] pH 2.7, [c] pH 7.8)
- Assay type: physicochemical
- COND: HPLC reversed phase, method [b] (pH 2.7)

Worked set:
| MOLECULE | logP |
| --- | --- |
| O=C(N[C@@H]1CC[C@@H]1c1ccccc1Cl)c1ccccc1[N+](=O)[O-] (relative stereo) [Compound 538] | 2.71^[b] |
| O=C(N[C@@H]1CCC[C@@H]1c1ccc(C(F)(F)F)cc1)c1nccnc1C(F)(F)F (relative stereo) [Example 330] | 3.55^[b] |
| O=C(NC1CCC1c1ccccc1C(F)(F)F)c1ccccc1I (centres unmarked) [Compound 427] | 3.44^[b] |
| O=C(NC1CCCC1c1ccccc1Cl)c1cccnc1C(F)(F)F (centres unmarked) [Example 361] | 3.01^[b] |
| O=C(N[C@@H]1CC[C@H]1c1ccccc1Cl)c1sccc1I (relative stereo) [Compound 544] | 3.86^[b] |
| O=C(NC1CCCCC1c1c(F)cccc1F)c1cccnc1Cl (centres unmarked) [Example 397] | 2.99^[b] |
| O=C(N[C@@H]1CC[C@H]1c1ccc(F)cc1C(F)(F)F)c1ccccc1Br (relative stereo) [Compound 501] | 3.64^[b] |
| Cn1cc(C(=O)NC2CCC2c2ccc(Cl)cc2Cl)c(C(F)F)n1 (centres unmarked) [Example 468] | 3.26^[b] |
| O=C(N[C@@H]1CC[C@@H]1c1c(F)cccc1C(F)(F)F)c1ncccc1Cl (relative stereo) [Compound 537] | 2.92^[b] |
| Cc1nn(C)cc1C(=O)NC1CCCCC1c1c(F)cccc1F (centres unmarked) [Example 393] | 2.51^[b] |

Hi! Can you tell me logP for each of these molecules?
1. O=C(NC1CCCCCC1c1ccccc1C(F)(F)F)c1ccccc1I (centres unmarked) [Example 419]
2. O=C(NC1CCC1c1cc(F)ccc1C(F)(F)F)c1cccc(Cl)c1 (centres unmarked) [Compound 517]

1. 4.59^[b]
2. 3.65^[b]

###

- ASSAY NOTES: Measurement of log P values by HPLC on reversed phase columns (methods [a] pH 2.3, [b] pH 2.7, [c] pH 7.8)
- Format: physicochemical
- COND: HPLC reversed phase, method [b] (pH 2.7)
READOUT LABEL: logP

| COMPOUND | logP |
| --- | --- |
| Cn1cc(C(=O)NC2CCC2c2ccc(F)cc2C(F)(F)F)c(C(F)F)n1 (stereo not shown) [Compound 485] | 2.84^[b] |
| O=C(N[C@@H]1CCC[C@@H]1c1ccccc1F)c1ccccn1 (relative stereo) | 1.86^[b] |
| O=C(N[C@@H]1CCC[C@@H]1c1ccccc1F)c1ccccc1Br (relative stereo) | 3.18^[b] |

# next compound below
Reported logP for O=C(NC1CCCCC1c1ccccc1C(F)(F)F)c1ccccc1Cl (stereo not shown) was 4.02^[b]

###

Kindly state logP for each of the entries shown.
- ASSAY NOTES: Measurement of log P values by HPLC on reversed phase columns (methods [a] pH 2.3, [b] pH 2.7, [c] pH 7.8)
- Type: physicochemical
- COND: HPLC reversed phase, method [b] (pH 2.7)
- Protocol: Measurement of log P-Values: Measurement of log P Values was Performed According EEC Directive 79/831 Annex V.A8 by HPLC (High Performance Liquid Chromatography) on reversed phase columns with the following methods: ^[a] […]

Worked set:
| COMPOUND | READOUT LABEL | RESULT |
| --- | --- | --- |
| Cc1nc(C)c(C(=O)NC2CCCCC2c2ccccc2C(F)(F)F)s1 (centres unmarked) | logP | 3.49^[b] |
| O=C(N[C@@H]1CC[C@@H]1c1ccccc1Cl)c1ncc(C(F)(F)F)cc1Cl (relative stereo) | logP | 3.77^[b] |

Hi! Can you tell me logP for each of these compounds?
1. Cc1nn(C)cc1C(=O)NC1CCCCC1c1ccccc1Br (centres unmarked)
2. O=C(NC1CCC1c1c(F)cccc1F)c1ccc(Cl)cc1 (centres unmarked)
3. O=C(N[C@@H]1CCC[C@@H]1c1ccc(C(F)(F)F)cc1)c1ccccc1Br (relative stereo)
4. O=C(N[C@@H]1CC[C@@H]1c1ccccc1Cl)c1cccnc1 (relative stereo)
5. O=C(N[C@@H]1CC[C@@H]1c1c(F)cccc1C(F)(F)F)c1c(F)cccc1F (relative stereo)
6. O=C(NC1CCCC1c1ccccc1Cl)c1cccnc1C(F)(F)F (centres unmarked) [Compound 297]

1: 2.74^[b]; 2: 3.20^[b]; 3: 3.73^[b]; 4: 1.18^[b]; 5: 3.25^[b]; 6: 3.05^[b]

###

Kindly state logP for each of the entries shown.
- ASSAY NOTES: Measurement of log P values by HPLC on reversed phase columns (methods [a] pH 2.3, [b] pH 2.7, [c] pH 7.8)
- Type: physicochemical
- COND: HPLC on reversed phase columns, method [b], pH 2.7

Worked set:
| MOLECULE | READOUT LABEL | RESULT |
| --- | --- | --- |
| Cc1cc(C(=O)N[C@@H]2CCC[C@@H]2c2ccc(F)c(F)c2)c(C)o1 (relative stereo) | logP | 3.35^[b] |
| Cc1ncncc1C(=O)N[C@@H]1CCC[C@H]1c1ccc(F)c(F)c1 (relative stereo) | logP | 2.21^[b] |
| Cc1oncc1C(=O)N[C@@H]1CCC[C@@H]1c1ccc(F)c(F)c1 (relative stereo) | logP | 2.73^[b] |

Hi! Can you tell me logP for each of these molecules?
1. Cc1ncc(C(=O)N[C@@H]2CCC[C@H]2c2ccc(F)c(F)c2)s1 (relative stereo)
2. CC1=C(C(=O)N[C@@H]2CCC[C@@H]2c2ccc(F)c(F)c2)SCCO1 (relative stereo)
3. CCCc1nn(C)cc1C(=O)N[C@@H]1CCC[C@@H]1c1ccc(F)c(F)c1 (relative stereo)

["2.64^[b]", "3.15^[b]", "2.80^[b]"]

Hi! Can you tell me logP for each of these molecules?
1. Cc1nc(C(F)(F)F)c(C(=O)NC2CC2c2ccc(F)cc2)s1 (centres unmarked)
2. Cn1cc(C(=O)NC2CCC2c2ccc(Cl)cc2C(F)(F)F)c(C(F)F)n1 (centres unmarked) [Example 719]

["3.87^[b]", "3.17^[b]"]

###

- ASSAY NOTES: Measurement of log P values by HPLC on reversed phase columns (methods [a] pH 2.3, [b] pH 2.7, [c] pH 7.8)
- Format: physicochemical
- COND: HPLC on reversed phase column, method [b], pH 2.7
Kindly state logP for each of the entries shown.

Hi! Can you tell me logP for each of these molecules?
1. O=C(N[C@@H]1CC[C@H]1c1ccc(Br)cc1C(F)(F)F)c1cccnc1C(F)(F)F (relative stereo)
2. O=C(N[C@@H]1CC[C@@H]1c1ccc(Cl)cc1C(F)(F)F)c1cccnc1 (relative stereo)
3. O=C(N[C@@H]1CC[C@@H]1c1ccc(Cl)cc1C(F)(F)F)c1ccc(Cl)cc1Cl (relative stereo)
4. N#Cc1ccccc1C(=O)N[C@@H]1C[C@@H]1c1ccc(Cl)cc1Cl (relative stereo)
5. O=C(N[C@@H]1CC[C@@H]1c1ccc(Cl)cc1C(F)(F)F)c1cccc(Cl)c1 (relative stereo)
6. O=C(N[C@@H]1CC[C@@H]1c1cccc(F)c1C(F)(F)F)c1ncc(C(F)(F)F)cc1Cl (relative stereo)
7. O=C(N[C@@H]1CC[C@H]1c1cccc(F)c1C(F)(F)F)c1ccccc1Cl (relative stereo)
8. CC1=C(C(=O)N[C@@H]2C[C@@H]2c2ccc(Cl)cc2Cl)S(=O)(=O)CCO1 (relative stereo)

1: 3.76^[b]; 2: 2.50^[b]; 3: 4.27^[b]; 4: 2.72^[b]; 5: 4.05^[b]; 6: 3.81^[b]; 7: 3.50^[b]; 8: 2.40^[b]

###

- ASSAY NOTES: Measurement of log P values by HPLC on reversed phase columns (methods [a] pH 2.3, [b] pH 2.7, [c] pH 7.8)
- Format: physicochemical
- COND: HPLC on reversed phase column, method [b], pH 2.7
Kindly state logP for each of the entries shown.

Worked set:
| COMPOUND | RESULT |
| --- | --- |
| O=C(N[C@@H]1CC[C@H]1c1cccc(F)c1C(F)(F)F)c1cccnc1 (relative stereo) | 2.38^[b] |
| O=C(N[C@@H]1CC[C@@H]1c1ccc(Cl)cc1Cl)c1ccccc1[N+](=O)[O-] (relative stereo) | 3.19^[b] |
| O=C(N[C@@H]1CC[C@H]1c1ccc(Br)cc1C(F)(F)F)c1ccccc1C(F)(F)F (relative stereo) | 4.26^[b] |

Reported logP for O=C(N[C@@H]1CC[C@@H]1c1cccc(F)c1C(F)(F)F)c1cccc(Cl)c1 (relative stereo) was 3.50^[b]
